Target: BRM (Homo sapiens)
Sequence (P51531 whole entry): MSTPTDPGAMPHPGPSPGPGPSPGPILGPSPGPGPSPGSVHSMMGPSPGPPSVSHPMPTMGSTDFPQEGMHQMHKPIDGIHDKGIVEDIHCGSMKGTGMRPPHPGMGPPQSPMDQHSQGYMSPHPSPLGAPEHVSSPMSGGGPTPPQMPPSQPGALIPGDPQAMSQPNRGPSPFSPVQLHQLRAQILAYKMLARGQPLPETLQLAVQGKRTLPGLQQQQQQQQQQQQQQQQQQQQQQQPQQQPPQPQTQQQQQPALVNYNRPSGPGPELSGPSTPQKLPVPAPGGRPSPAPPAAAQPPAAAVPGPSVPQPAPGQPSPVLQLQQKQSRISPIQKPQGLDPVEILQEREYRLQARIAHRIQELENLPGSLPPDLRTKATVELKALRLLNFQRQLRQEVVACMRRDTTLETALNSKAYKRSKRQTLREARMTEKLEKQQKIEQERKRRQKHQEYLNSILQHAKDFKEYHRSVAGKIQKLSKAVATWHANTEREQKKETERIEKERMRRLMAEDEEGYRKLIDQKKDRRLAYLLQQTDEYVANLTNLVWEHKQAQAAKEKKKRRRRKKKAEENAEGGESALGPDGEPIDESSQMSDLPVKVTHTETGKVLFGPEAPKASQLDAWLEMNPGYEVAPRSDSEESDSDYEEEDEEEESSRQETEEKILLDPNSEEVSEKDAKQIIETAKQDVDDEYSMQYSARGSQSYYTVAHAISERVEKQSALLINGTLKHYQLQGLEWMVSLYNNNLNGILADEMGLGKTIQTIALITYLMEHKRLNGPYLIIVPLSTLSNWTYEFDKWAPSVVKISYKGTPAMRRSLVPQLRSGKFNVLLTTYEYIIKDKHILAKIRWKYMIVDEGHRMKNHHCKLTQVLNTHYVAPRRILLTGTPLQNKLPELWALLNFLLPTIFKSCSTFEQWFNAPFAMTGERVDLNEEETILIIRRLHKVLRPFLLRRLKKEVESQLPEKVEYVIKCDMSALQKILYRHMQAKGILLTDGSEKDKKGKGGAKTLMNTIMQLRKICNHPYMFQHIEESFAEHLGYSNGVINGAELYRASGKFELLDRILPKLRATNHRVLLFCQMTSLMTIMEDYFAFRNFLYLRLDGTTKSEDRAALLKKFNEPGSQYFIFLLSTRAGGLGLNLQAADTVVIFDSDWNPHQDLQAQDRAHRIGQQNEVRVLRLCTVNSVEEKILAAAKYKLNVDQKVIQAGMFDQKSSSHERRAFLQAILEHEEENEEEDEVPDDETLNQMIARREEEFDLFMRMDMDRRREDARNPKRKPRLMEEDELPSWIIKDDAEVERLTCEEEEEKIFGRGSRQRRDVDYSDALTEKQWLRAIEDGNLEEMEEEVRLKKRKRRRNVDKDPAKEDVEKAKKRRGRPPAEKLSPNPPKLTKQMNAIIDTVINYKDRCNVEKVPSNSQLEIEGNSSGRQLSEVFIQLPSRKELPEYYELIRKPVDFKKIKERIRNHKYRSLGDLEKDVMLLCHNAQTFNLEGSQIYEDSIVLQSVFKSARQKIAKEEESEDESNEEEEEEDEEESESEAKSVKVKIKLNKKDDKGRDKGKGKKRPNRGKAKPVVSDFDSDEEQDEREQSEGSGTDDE
Test: ATPase catalytic activity assay of BRM (ADP-Glo)
Type: biochemical
Conditions: 30 nM BRM, 400 μM ATP, read-out: BRM IC50 (μM)*
value_kind: IC50

Answered cases to consult:
- molecule: "Cn1ccc2ccc(-c3csc(NC(=O)CNC(=O)c4ccc5c(c4)[C@@](C)(C#N)CCO5)n3)cc2c1=O"
  IC50: "< 0.1 µM"
- molecule: "C[C@@H]1CN(c2cccc(-c3csc(NC(=O)CNC(=O)c4ccc5c(c4)[C@@](C)(O)COC5)n3)c2)C[C@H](C)O1"
  IC50: "< 0.1 µM"
- molecule: "CC1(C#N)CCOc2ccc(C(=O)NCC(=O)Nc3nc(-c4cccc(C5CC5)n4)cs3)cc21 (stereo in doubt)"
  IC50: "0.1 to 1 µM"
- molecule: "Cc1cncc(-c2cccc(-c3csc(NC(=O)CNC(=O)c4ccc5c(c4)C(C)(CO)CC5)n3)c2)n1 (stereo in doubt)"
  IC50: "< 0.1 µM"
- molecule: "CC1(C#N)CCOc2ccc(C(=O)NCC(=O)Nc3nc(-c4cccc(C5(F)COC5)c4)cs3)cc21 (stereo in doubt)"
  IC50: "0.1 to 1 µM"

Q. Given the molecule C[C@@H]1CN(c2cccc(-c3csc(NC(=O)CNC(=O)c4ccc5c(c4)C(C)(C#N)COC5)n3)n2)C[C@H](C)O1 (stereo in doubt) [Compound 420] , write its reported IC50.
A. < 0.1 µM
